# System: Mycobacterium tuberculosis Erdman (autoluminescent)
# test.summary: AUC25, normalised area under dose response up to IC25 (three-drug combination) (fraction (0-1)); higher = more potent at low dose
# applied.conditions: in vitro model: butyrate; time point: terminal (~4-5 doublings, model-specific)
recorded.endpoint: AUC25
Answers are plain numbers.

{"columns": ["molecule", "AUC25"],
 "data": [
  ["CC(C)/N=c1\\cc2n(-c3ccc(Cl)cc3)c3ccccc3nc-2cc1Nc1ccc(Cl)cc1 [clofazimine] + CC(=O)NC[C@H]1CN(c2ccc(N3CCOCC3)c(F)c2)C(=O)O1 [linezolid] + O=[N+]([O-])c1cn2c(n1)OC[C@@H](OCc1ccc(OC(F)(F)F)cc1)C2 [pretomanid]", 0.0915],
  ["COc1c(N2C[C@@H]3CCCN[C@@H]3C2)c(F)cc2c(=O)c(C(=O)O)cn(C3CC3)c12 [moxifloxacin] + O=[N+]([O-])c1cn2c(n1)OC[C@@H](OCc1ccc(OC(F)(F)F)cc1)C2 [pretomanid] + CO[C@H]1/C=C/O[C@@]2(C)Oc3c(C)c(O)c4c(O)c(c(/C=N/N5CCN(C)CC5)c(O)c4c3C2=O)NC(=O)/C(C)=C\\C=C\\[C@H](C)[C@H](O)[C@@H](C)[C@@H](O)[C@@H](C)[C@H](OC(C)=O)[C@@H]1C [rifampicin]", 0.085]
]}

The record that follows has no AUC25 shown yet.
Request: Form field: reported AUC25 of CC(C)/N=c1\cc2n(-c3ccc(Cl)cc3)c3ccccc3nc-2cc1Nc1ccc(Cl)cc1 [clofazimine] + NNC(=O)c1ccncc1 [isoniazid] + CC(=O)NC[C@H]1CN(c2ccc(N3CCOCC3)c(F)c2)C(=O)O1 [linezolid]
Response: 0.0763

* * *

Could you please report measured GRinf for the items listed next?
# System: Mycobacterium tuberculosis Erdman (autoluminescent)
# test.summary: GRinf, maximum normalised growth rate inhibition (three-drug combination) (unitless (-1 to 1)); higher = less effect (negative = killing)
# applied.conditions: in vitro model: valerate; time point: constant (~7 days, model-specific)
Answers are plain numbers.

Use these answered entries as a reference point.
{"columns": ["compound", "GRinf"],
 "data": [
  ["CC(=O)NC[C@H]1CN(c2ccc(N3CCOCC3)c(F)c2)C(=O)O1 [linezolid] + COc1c(N2C[C@@H]3CCCN[C@@H]3C2)c(F)cc2c(=O)c(C(=O)O)cn(C3CC3)c12 [moxifloxacin] + CO[C@H]1/C=C/O[C@@]2(C)Oc3c(C)c(O)c4c(O)c(c(/C=N/N5CCN(C6CCCC6)CC5)c(O)c4c3C2=O)NC(=O)/C(C)=C\\C=C\\[C@H](C)[C@H](O)[C@@H](C)[C@@H](O)[C@@H](C)[C@H](OC(C)=O)[C@@H]1C [rifapentine]", 0.129],
  ["CC[C@@H](CO)NCCN[C@@H](CC)CO [ethambutol] + NNC(=O)c1ccncc1 [isoniazid] + NC(=O)c1cnccn1 [pyrazinamide]", 0.124],
  ["COc1nc2ccc(Br)cc2cc1[C@@H](c1ccccc1)[C@@](O)(CCN(C)C)c1cccc2ccccc12 [bedaquiline] + O=[N+]([O-])c1cn2c(n1)OC[C@@H](OCc1ccc(OC(F)(F)F)cc1)C2 [pretomanid] + NC(=O)c1cnccn1 [pyrazinamide]", -0.0433]
]}

Give GRinf for each of the items listed below.
1. COc1c(N2C[C@@H]3CCCN[C@@H]3C2)c(F)cc2c(=O)c(C(=O)O)cn(C3CC3)c12 [moxifloxacin] + NC(=O)c1cnccn1 [pyrazinamide] + CO[C@H]1/C=C/O[C@@]2(C)Oc3c(C)c(O)c4c(O)c(c(/C=N/N5CCN(C)CC5)c(O)c4c3C2=O)NC(=O)/C(C)=C\C=C\[C@H](C)[C@H](O)[C@@H](C)[C@@H](O)[C@@H](C)[C@H](OC(C)=O)[C@@H]1C [rifampicin]
2. CC(=O)NC[C@H]1CN(c2ccc(N3CCOCC3)c(F)c2)C(=O)O1 [linezolid] + COc1c(N2C[C@@H]3CCCN[C@@H]3C2)c(F)cc2c(=O)c(C(=O)O)cn(C3CC3)c12 [moxifloxacin] + NC(=O)c1cnccn1 [pyrazinamide]

Response:
1. 0.176
2. 0.12

Request: If you can, please state the reported GRinf value of COc1nc2ccc(Br)cc2cc1[C@@H](c1ccccc1)[C@@](O)(CCN(C)C)c1cccc2ccccc12 [bedaquiline] + O=[N+]([O-])c1cn2c(n1)OC[C@@H](OCc1ccc(OC(F)(F)F)cc1)C2 [pretomanid] + CO[C@H]1/C=C/O[C@@]2(C)Oc3c(C)c(O)c4c(O)c(c(/C=N/N5CCN(C)CC5)c(O)c4c3C2=O)NC(=O)/C(C)=C\C=C\[C@H](C)[C@H](O)[C@@H](C)[C@@H](O)[C@@H](C)[C@H](OC(C)=O)[C@@H]1C [rifampicin] .
Response: -0.11
